system: NCI-H838; experiment: relative viability (nuclei count vs DMSO), 5 days (fraction); higher = more cells survive; conditions: first compound 0.4 µM
Quick rule for you: relative viability under 1 gets satisfied, anything else gets not satisfied.

See these solved cases before continuing.
Clc1ccc(Nc2nnc(Cc3ccncc3)c3ccccc23)cc1 [Vatalanib] + C[C@]1(O)C[C@@H](c2nc(-c3ccc4ccc(-c5ccccc5)nc4c3)c3c(N)nccn32)C1 [Linsitinib] (partner 1 µM) ... not satisfied
COc1cc(N2CCC(C(N)=O)CC2)ccc1Nc1nc(N)c(Cl)c(Nc2ccccc2S(=O)(=O)C(C)C)n1 [HG-5-88-01] + CC1(C)CCC(c2ccc(Cl)cc2)=C(CN2CCN(c3ccc(C(=O)NS(=O)(=O)c4ccc(N[C@H](CCN5CCOCC5)CSc5ccccc5)c(S(=O)(=O)C(F)(F)F)c4)cc3)CC2)C1 [Navitoclax] (partner 0.5 µM) ... not satisfied
C[C@@H]1CN(CC(=O)Nc2ccc3c(c2)Cc2cccc(-c4cc(=O)cc(N5CCOCC5)o4)c2S3)C[C@H](C)O1 + CS(=O)(=O)N1CCN(Cc2cc3nc(-c4cccc5[nH]ncc45)nc(N4CCOCC4)c3s2)CC1 [Pictilisib] (partner 1 µM) ... satisfied
C[C@@H]1CN(CC(=O)Nc2ccc3c(c2)Cc2cccc(-c4cc(=O)cc(N5CCOCC5)o4)c2S3)C[C@H](C)O1 + O=C(c1cc(Cc2n[nH]c(=O)c3ccccc23)ccc1F)N1CCN(C(=O)C2CC2)CC1 [Olaparib] (partner 8 µM) ... satisfied

Does the reported relative viability of COc1cc(N2CCC(C(N)=O)CC2)ccc1Nc1nc(N)c(Cl)c(Nc2ccccc2S(=O)(=O)C(C)C)n1 [HG-5-88-01] + CC(=O)c1c(C)c2cnc(Nc3ccc(N4CCNCC4)cn3)nc2n(C2CCCC2)c1=O [Palbociclib] (partner 0.5 µM) stay below 1?
satisfied

Does the reported relative viability of C[C@@H]1CN(CC(=O)Nc2ccc3c(c2)Cc2cccc(-c4cc(=O)cc(N5CCOCC5)o4)c2S3)C[C@H](C)O1 + CS(=O)(=O)CCNCc1ccc(-c2ccc3ncnc(Nc4ccc(OCc5cccc(F)c5)c(Cl)c4)c3c2)o1 [Lapatinib] (partner 2 µM) stay below 1?
satisfied

Does the reported relative viability of COc1cc(N2CCC(C(N)=O)CC2)ccc1Nc1nc(N)c(Cl)c(Nc2ccccc2S(=O)(=O)C(C)C)n1 [HG-5-88-01] + CS(=O)(=O)N1CCN(Cc2cc3nc(-c4cccc5[nH]ncc45)nc(N4CCOCC4)c3s2)CC1 [Pictilisib] (partner 1 µM) stay below 1?
satisfied

Data provenance is the supplement of paper PMC10307832.
